The reader will find reported Anti-CD28 Fab signal (phage binding ELISA) values listed item by item below.
# assay system: T1, Anti-CD28 Fab (SEQ ID NOs: 696, 697)
# T1 construct: In the phage ELISA the Fab was biotinylated and captured on neutravidin coated plates
# T1 sequence (VH, as listed by the source, chain 1 of 2): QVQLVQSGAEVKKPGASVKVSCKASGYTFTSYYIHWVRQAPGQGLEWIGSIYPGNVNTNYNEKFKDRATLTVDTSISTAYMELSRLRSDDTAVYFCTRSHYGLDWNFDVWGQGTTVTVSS
# T1 sequence (VL, as listed by the source, chain 2 of 2): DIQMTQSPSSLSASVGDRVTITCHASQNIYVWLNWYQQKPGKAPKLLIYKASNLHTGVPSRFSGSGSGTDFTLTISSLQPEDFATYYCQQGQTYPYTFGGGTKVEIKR
# procedure summary: phage ELISA; clonal phage supernatant on biotinylated anti-CD28 Fab captured on neutravidin, anti-M13 HRP detection
Response field accepts a number only; no unit should be typed.

The cases that follow already have their Anti-CD28 Fab signal (phage binding ELISA) on record.
YCAGHVAEYMAKCL [Phage-933] :: 1.64
YCEGHLEQYMQKCL [Phage-942] :: 1.63
YCDGHDVEYMSKCL [Phage-936] :: 1.64

Entry YCAGHAPEYMSKCL [Phage-939] , Anti-CD28 Fab signal (phage binding ELISA) reported as 1.63

Per the records, this binder ( YCAGHSLEYMQKCL [Phage-937] ) has Anti-CD28 Fab signal (phage binding ELISA) equal to 1.63

Anti-CD28 Fab signal (phage binding ELISA) measured on YCEGHSSEYMWKCL [Phage-940] = 1.63

Briefly, Anti-CD28 Fab signal (phage binding ELISA) measured for YCEGHDLIYMWKCL [Phage-938] : 1.63

The binder listed as YCEGHSWVYMAKCL [Phage-943] shows Anti-CD28 Fab signal (phage binding ELISA) equal to 1.63
